# System: cytochrome c
# Assay type: cell-based, mouse
# TEST_CONDITIONS: composite Z-score vs DMSO; Conc 20 μM
OUTCOME_MEASURE: cyt c

Here is how some compounds turned out for cyt c.
QUERY_SMILES	ASSAYED_SYSTEM	cyt c
COC1=C(O)C(=O)c2c(cc3oc(C(C)=O)c(O)c3c2O)C1=O	cytochrome c	1.150
C[C@H]1CC[C@]2(NC1)O[C@H]1C[C@H]3[C@@H]4CC[C@H]5C[C@@H](O)CC[C@]5(C)[C@H]4CC[C@]3(C)[C@H]1[C@@H]2C	cytochrome c	0.913

Could you now look at the following compound, please?
Request: Write down cyt c measured for item CNC(=O)ON=C(C)SC
Result: −0.007

====

# Tested on: cellular dehydrogenase activity
# TEST_CONDITIONS: composite Z-score vs mock-treated (DMSO) wells; concentration of each compound in μM
Counter-ions that a name gives are not always drawn. Where a SMILES comes first, the peptide text is derived from it. The star is where a group is joined. Tfa = O=C(C(F)(F)F)*
OUTCOME_MEASURE: MTT
Give the figure by itself; no unit, no explanation.

Here is how some molecules turned out for MTT.
MOLECULE	ASSAYED_SYSTEM	DATA_VALUE
NC[C@H]1O[C@H](O[C@H]2[C@H](O)[C@@H](O[C@H]3O[C@H](CO)[C@@H](O)[C@H](N)[C@H]3O)[C@H](N)C[C@@H]2N)[C@H](O)[C@@H](O)[C@@H]1O [kanamycin A]	cellular dehydrogenase activity	−1.149
C=Cc1c(C)c2cc3nc(c4c5[n-]c(cc6nc(cc1[n-]2)C(C)=C6CC)c(C)c5C(=O)[C@@H]4C(=O)OC)[C@@H](CCC(=O)O)[C@@H]3C.[Mg+2] [chlorophyllide]	cellular dehydrogenase activity	0.307
COc1cc2c(cc1OC)-c1cc3ccc(OC)c(OC)c3c[n+]1CC2 [Palmatine, reference compound]	cellular dehydrogenase activity	−1.222

Could you now look at the following molecule, please?
Request: Write down MTT measured for item CC(C)[C@H](NC(=O)[C@H](Cc1ccc(O)cc1)NC(=O)[C@@H](NC(=O)C(F)(F)F)C(C)C)C(=O)O [TFA-Val-Tyr-Val-OH] (Tfa-Val-Tyr-Val-OH)
Result: −1.019

====

# System: OXPHOS gene expression
# Assay type: cell-based, mouse
# TEST_CONDITIONS: 20 μM; composite Z-score vs DMSO
OUTCOME_MEASURE: GE-HTS
Give the figure by itself; no unit, no explanation.

COMPOUND	GE-HTS
CC(C)[N+](C)(CCOC(=O)C1c2ccccc2Oc2ccccc21)C(C)C [propantheline]	0.458
CCCC(C(=O)OCCN(CC)CC)(c1ccccc1)c1ccccc1 [proadifen]	−0.377
CCCN(CCC)C(=O)C(CCC(=O)O)NC(=O)c1ccccc1 (stereo not drawn) [proglumide]	−0.541
CCN(CC)Cc1cc(Nc2ccnc3cc(Cl)ccc23)ccc1O [amodiaquine]	0.398

Request: Write down GE-HTS measured for item CC(C)(C)NCC(O)c1ccccc1Cl (stereo not drawn) [tulobuterol]
Result: −0.101

Request: Write down GE-HTS measured for item Cc1cc(O)ccc1Cl [chlorocresol]
Result: 0.206

Request: Write down GE-HTS measured for item CC1(C)S[C@@H]2[C@H](NC(=O)COc3ccccc3)C(=O)N2[C@H]1C(=O)O [penicillin V]
Result: −0.849

Request: Write down GE-HTS measured for item NC(=O)c1cc([N+](=O)[O-])cc([N+](=O)[O-])c1 [nitromide]
Result: −0.128

Request: Write down GE-HTS measured for item CN1Cc2c(N)cccc2C(c2ccccc2)C1 (stereo not drawn) [nomifensin]
Result: −0.131

Request: Write down GE-HTS measured for item CC1(C)S[C@@H]2[C@H](NC(=O)C(C(=O)O)c3ccccc3)C(=O)N2[C@H]1C(=O)O (stereo partly drawn) [carbenicillin]
Result: −0.869

Request: Write down GE-HTS measured for item CC1COc2c(N3CCN(C)CC3)c(F)cc3c(=O)c(C(=O)O)cn1c23 (stereo not drawn) [ofloxacin]
Result: −0.458

Request: Write down GE-HTS measured for item CN(C)C(=S)SSC(=S)N(C)C [thiram]
Result: −2.420

====

Recorded below: MTT, system cellular dehydrogenase activity.
Give the figure by itself; no unit, no explanation.

Here is how some molecules turned out for MTT.
MOLECULE	DATA_VALUE
CN1C(C)(C)CCCC1(C)C [pempidine]	−2.128
CCCCC(CC)CNC(=N)NC(=N)NCCCCCCNC(=N)NC(=N)NCC(CC)CCCC (stereo not shown) [alexidine]	−5.432
C[C@@H](N)[C@@H](O)c1ccccc1 [1S,2R-phenylpropanolamine]	−1.507

Request: Enter measured MTT, system cellular dehydrogenase activity, for the molecule shown: CN1CCc2cc3c(cc2[C@H]1[C@@H]1OC(=O)c2c1ccc1c2OCO1)OCO3 [(+)-bicuculline]
Result: −1.330

====

Listed below: nucOX (composite Z-score) values for each entry.
# Tested on: nuOXPHOS transcripts
# Assay type: cell-based, mouse
# TEST_CONDITIONS: Conc 20 μM; normalized score vs mock-treated (DMSO) wells
Give the figure by itself; no unit, no explanation.

COMPOUND	OUTCOME_MEASURE	DATA_VALUE
COc1ccc(-c2c(O)c3c(OC)c4c(cc3oc2=O)OC(C)(C)C=C4)cc1 [robustic acid, reference compound]	nucOX (composite Z-score)	−0.973
CCOc1cc(CC(=O)c2ccc(O)c(O)c2O)ccc1O	nucOX (composite Z-score)	1.496
NC(=O)C1(O)C[C@@H](O)C(O)[C@H](O)C1 (stereo partly shown) [quinamide]	nucOX (composite Z-score)	−0.529

Could you now look at the following compound, please?
Request: Write down nucOX (composite Z-score) measured for item Cc1c(O)c(C(=O)CC(C)C)c2oc3c(C(=O)CC(C)C)c(O)c(C)c(O)c3c2c1O
Result: 0.412
